tested on: PPARg:RXRa 270nM:90nM, anti-RXR (NR concentration 270 nM, RXRa partner concentration 90 nM); assay: PBM binding z-score (relative to random genomic background probes); higher = stronger binding; sequences stand for … in GC…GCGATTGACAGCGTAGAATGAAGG
Please mark MET if the recorded PBM binding z-score is equal to or greater than 0.8, and NOT MET if it falls below.

Is reported PBM binding z-score greater than or equal to 0.8 here: `GCTAGTTGGTCAGTAAAAGGTCGCACACCGGTCG`
MET

Entry to check: `GATACAGGCTCAGCTAGAGGCCAGAGTATGGAAA`
NOT MET

What about `TCTATTTGGTCACGGAGGTCACACACGACGGGTA` ?
MET

// next record `CCGACTGGGGCATAAGGTTACCTTAAGCCAGCCC`
MET

Please answer likewise for `TCTTGTAGATCAGCGGGTTAAGAAAGCTGGCCAA`
MET

Also `CAAACTAGGTCAAGTTCAAAGTCGGTTTGTGCCA` ?
MET

And `CGTCCAAGGACAAAGGTCAGTGAAGAGATGACGG` ?
MET

Next sequence up: `CCTACTGGGGCAAAAAGGTCATTGATGCCGATAA`
MET

Here is the next sequence: `TCTATTAGTTGAAGGGCTACCGACGAGTCCGTTT`
MET

Request: `TAGCCTATGTCATGGGCCAGTATACCACGCGAAC`
NOT MET

Also `GGAACGAGGGCAATCGAGTTGATAGCATGGCGAT` ?
NOT MET
